target.or.system: Human CB1R (Cannabinoid receptor 1) (Homo sapiens, UniProt P21554)
Sequence (P21554 whole entry): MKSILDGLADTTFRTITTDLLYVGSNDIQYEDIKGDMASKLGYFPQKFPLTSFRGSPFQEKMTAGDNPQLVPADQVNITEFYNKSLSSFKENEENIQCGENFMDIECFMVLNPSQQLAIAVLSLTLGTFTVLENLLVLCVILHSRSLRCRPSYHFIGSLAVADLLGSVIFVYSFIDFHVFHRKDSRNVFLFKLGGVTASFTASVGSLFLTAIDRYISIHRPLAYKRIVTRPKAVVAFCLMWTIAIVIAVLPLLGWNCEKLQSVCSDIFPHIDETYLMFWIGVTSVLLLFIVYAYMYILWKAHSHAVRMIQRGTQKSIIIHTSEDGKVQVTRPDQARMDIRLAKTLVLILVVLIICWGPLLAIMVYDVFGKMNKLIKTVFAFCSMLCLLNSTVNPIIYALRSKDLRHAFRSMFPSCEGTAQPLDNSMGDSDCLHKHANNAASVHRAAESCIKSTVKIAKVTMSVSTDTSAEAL
assay.overview: CB-1 in vitro cAMP (HTRF) assay
Type: cell-based
test.settings: HEK cells, cAMP HTRF, 250 nM forskolin; mean where tested more than once; read-out: CB1 HEK_cAMP EC50
Listed here are compounds together with their documented EC50.

- compound: "O=S(=O)(N1CCC(n2c(C3CC3)nc3ccc(C(O)(c4ccc(Cl)cc4)c4ccc(Cl)cc4)cc32)CC1)C(F)(F)F"
  measured.property: "EC50"
  experimental.value: "17.4 nM"
- compound: "Clc1ccc(C(c2ccc(Cl)cc2)c2ccc3nc(C4CC4)n(C4Cc5ccccc5C4)c3c2)cc1"
  measured.property: "EC50"
  experimental.value: "163 nM"
- compound: "FC(F)(F)Cc1nc2ccc(C(c3ccc(Cl)cc3)c3nccs3)cc2n1CCc1cccc(Cl)c1 (stereo not shown)"
  measured.property: "EC50"
  experimental.value: "1440 nM"

// moving on: another record for EC50
Task item: What does the record list as EC50 for O=C(O)Cc1cccc(N2CCC(n3c(C4CC4)nc4ccc(C(c5ccc(Cl)cc5)c5ccc(Cl)cc5)cc43)CC2)c1 ?
Reply: 67.9 nM

---

EC50 values for the molecules below.
target.or.system: Human CB1R (Cannabinoid receptor 1) (Homo sapiens, UniProt P21554)
assay.overview: CB-1 in vitro cAMP (HTRF) assay
Format: cell-based
test.settings: HEK cells, cAMP HTRF, 250 nM forskolin; mean where tested more than once; read-out: CB1 HEK_cAMP EC50
Provide only the numeric value, understood in nM.

- molecule: "O=C(O)c1ccc(CCn2c(C3CC3)nc3ccc(C(c4ccc(Cl)cc4)c4ccc(Cl)cc4)cc32)cc1 [Example 38]"
  target.or.system: "Human CB1R (Cannabinoid receptor 1) (Homo sapiens, UniProt P21554)"
  measured.property: "EC50"
  experimental.value: 4300
- molecule: "O=S(=O)(N1CCC(n2c(C3CC3)nc3ccc(C(c4ccc(Cl)cc4)c4nccs4)cc32)CC1)C(F)(F)F (stereo not shown) [Example 384]"
  target.or.system: "Human CB1R (Cannabinoid receptor 1) (Homo sapiens, UniProt P21554)"
  measured.property: "EC50"
  experimental.value: 12
- molecule: "O=C(O)c1ccc(S(=O)(=O)N2CCC(Cn3c(C4CC4)nc4ccc(C(c5ccc(Cl)cc5)c5ccc(Cl)cc5)cc43)CC2)cc1 [Example 15]"
  target.or.system: "Human CB1R (Cannabinoid receptor 1) (Homo sapiens, UniProt P21554)"
  measured.property: "EC50"
  experimental.value: 73

Task item: Query the reported EC50 for Human CB1R (Cannabinoid receptor 1) (Homo sapiens, UniProt P21554); item: CCc1nc2ccc(C(c3ccc(Cl)cc3)c3ccc(Cl)cc3)cc2n1CC(C)c1ccccc1 (single isomer, unassigned) [Example 312]
Reply: 49.2

Task item: Also, O=C(O)c1ccnc(N2CCC(Cn3c(C4CC4)nc4ccc(C(c5ccc(Cl)cc5)c5ccc(Cl)cc5)cc43)CC2)n1 [Example 2] please.
Reply: 479

Task item: Now the molecule O=S(=O)(c1ccccc1O)N1CCC(n2c(C3CC3)nc3ccc(C(c4ccc(Cl)cc4)c4ccc(Cl)cc4)cc32)CC1 [Example 258]
Reply: 20.1

Task item: Could you do the same for CCc1nc2ccc(C(c3ccc(Cl)cc3)c3nccs3)cc2n1C1CCN(S(=O)(=O)C(F)(F)F)CC1 (stereo not shown) [Example 400] , please?
Reply: 6

---

target.or.system: Human CB1R (Cannabinoid receptor 1) (Homo sapiens)
assay.overview: CB-1 in vitro cAMP (HTRF) assay
test.settings: first line of the list; HEK-293 cells, cAMP, 250 nM Forskolin
measured.property: IC50 (nM)
The response must be a number in nM with no trailing unit.

Task item: // IC50 lookup, key: O=S(=O)(c1cccc(NCCOCCOCc2ccccc2)c1)N1CCC(n2c(C3CC3)nc3ccc(C(c4ccc(Cl)cc4)c4ccc(Cl)cc4)cc32)CC1
Reply: 13.5

---

assay.overview: Mouse Fast PK/BBB: plasma and brain concentration
Format: in vivo, Male C57bl/6j mice
test.settings: male, C57bl/6j, mouse, plasma; mice, dose 30 mg/kg oral, 4 hr; read-out: Plasma Mean Conc. ± Std. Dev
Documented concentration at 4 h across a set of compounds
Put down the number, then write its unit next to it.

A selection of reference data follows.
- chem.smiles: "O=C(O)c1ccc(CN2CCC(n3c(C4CC4)nc4ccc(C(c5ccc(Cl)cc5)c5ccc(Cl)cc5)cc43)CC2)o1"
  concentration at 4 h: "0.0846 µg/mL"
- chem.smiles: "O=C(O)c1cccc(CN2CCC(n3c(C4CC4)nc4ccc(C(c5ccc(Cl)cc5)c5ccc(Cl)cc5)cc43)CC2)n1"
  concentration at 4 h: "0.39 µg/mL"
- chem.smiles: "O=C(O)c1ccc(F)c(CN2CCC(n3c(C4CC4)nc4ccc(C(c5ccc(Cl)cc5)c5ccc(Cl)cc5)cc43)CC2)c1"
  concentration at 4 h: "5.19 µg/mL"
- chem.smiles: "O=C(O)c1cc(F)cc(CN2CCC(n3c(C4CC4)nc4ccc(C(c5ccc(Cl)cc5)c5ccc(Cl)cc5)cc43)CC2)c1"
  concentration at 4 h: "4.43 µg/mL"
- chem.smiles: "O=C(O)c1ccc(CN2CCC(n3c(C4CC4)nc4ccc(C(c5ccc(Cl)cc5)c5ccc(Cl)cc5)cc43)CC2)nc1"
  concentration at 4 h: "0.297 µg/mL"

Task item: // returns reported concentration at 4 h for input O=C(O)c1ccc(S(=O)(=O)N2CCC(n3c(C4CC4)nc4ccc(C(c5ccc(Cl)cc5)c5ccc(Cl)cc5)cc43)CC2)o1
Reply: 0.00711 µg/mL

Task item: Next record, please: O=C(O)c1cccc(CN2CCC(n3c(C4CC4)nc4ccc(C(c5ccc(Cl)cc5)c5ccc(Cl)cc5)cc43)CC2)c1
Reply: 7.75 µg/mL

---

target.or.system: UniProtKB P34972
assay.overview: CB-2 in vitro cAMP (HTRF) assay
test.settings: HEK cells, cAMP HTRF, 250 nM forskolin; mean where tested more than once; read-out: CB2 HEK_cAMP EC50
Reported EC50 by item:
Give the number; µM is assumed, so skip it.

- compound: "O=C(O)c1ccc(OCCn2c(C3CC3)nc3ccc(C(c4ccc(Cl)cc4)c4ccc(Cl)cc4)cc32)cc1"
  readout.unit: "µM"
  EC50: 4.36

Proceed to the following item.
Task item: EC50 lookup needed for CC(c1cccc(C(=O)O)c1)N1CCC(n2c(C3CC3)nc3ccc(C(c4ccc(Cl)cc4)c4ccc(Cl)cc4)cc32)CC1 (single isomer, unassigned) [Example 47] , thanks.
Reply: 17.1

---

Reported EC50 values are given for each entry in this list.
target.or.system: Human CB2R (Cannabinoid receptor 2) (Homo sapiens, UniProt P34972)
Sequence (P34972 whole entry): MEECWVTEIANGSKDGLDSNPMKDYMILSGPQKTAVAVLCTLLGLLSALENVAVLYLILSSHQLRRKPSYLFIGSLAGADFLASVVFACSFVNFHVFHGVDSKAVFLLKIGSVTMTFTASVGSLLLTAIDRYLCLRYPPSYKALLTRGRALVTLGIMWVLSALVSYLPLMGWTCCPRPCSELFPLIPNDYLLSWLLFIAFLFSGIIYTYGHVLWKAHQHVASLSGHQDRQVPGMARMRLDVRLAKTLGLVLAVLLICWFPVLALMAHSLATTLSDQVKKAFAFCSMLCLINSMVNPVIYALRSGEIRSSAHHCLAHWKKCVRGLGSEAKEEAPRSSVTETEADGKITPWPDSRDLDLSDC
assay.overview: CB-2 in vitro cAMP (HTRF) assay
test.settings: HEK cells, cAMP HTRF, 250 nM forskolin; mean where tested more than once; read-out: CB2 HEK_cAMP EC50

Look over these answered cases.
- compound: "O=C(OC1CCCC1)N1CCC(n2c(C3CC3)nc3ccc(C(c4ccc(Cl)cc4)c4ccc(Cl)cc4)cc32)CC1 [Example 71]"
  EC50: "4.88 µM"
- compound: "Cc1nc2ccc(C(c3ccc(Cl)cc3)c3nccs3)cc2n1Cc1ccc(Cl)cc1 (stereo not shown) [Example 463]"
  EC50: "> 7.6 µM"
- compound: "CCCc1nc2ccc(C(c3ccc(Cl)cc3)c3nccs3)cc2n1-c1cccc(Cl)c1 (stereo not shown) [Example 431]"
  EC50: "> 10 µM"
- compound: "O=C(O)c1cccc(S(=O)(=O)N2CCC(n3c(C4CC4)nc4ccc(C(c5ccc(Cl)cc5)c5ccc(Cl)cc5)cc43)CC2)c1 [Example 242]"
  EC50: "5.69 µM"
- compound: "NC(=O)c1cccc(CN2CCC(n3c(C4CC4)nc4ccc(C(c5ccc(Cl)cc5)c5ccc(Cl)cc5)cc43)CC2)c1 [Example 141]"
  EC50: "> 10 µM"
- compound: "CCc1nc2ccc(C(c3ccc(Cl)cc3)c3ccc(Cl)cc3)cc2n1C1CCN(S(=O)(=O)C(F)(F)F)CC1 [Example 328]"
  EC50: "> 14 µM"

Please turn your attention to the following entry.
Task item: # returns recorded EC50 (system: Human CB2R (Cannabinoid receptor 2) (Homo sapiens, UniProt P34972)) for CCOC(=O)N1CCC(n2cnc3ccc(C(c4ccc(Cl)cc4)c4nccs4)cc32)CC1 (stereo not shown) [Example 448]
Reply: > 10 µM

---

target.or.system: Human CB1R (Cannabinoid receptor 1) (Homo sapiens, UniProt P21554)
assay.overview: CB-1 in vitro cAMP (HTRF) assay
Format: cell-based
test.settings: HEK cells, cAMP HTRF, 250 nM forskolin; mean where tested more than once; read-out: CB1 HEK_cAMP EC50
Some compounds, each annotated with its measured pEC50.
// pEC50 here means minus log10 of the molar concentration (mol/L)

Task item: State its pEC50 on Human CB1R (Cannabinoid receptor 1) (Homo sapiens, UniProt P21554): Cc1ccc(S(=O)(=O)N2CCC(n3c(C4CC4)nc4ccc(C(c5ccc(Cl)cc5)c5ccc(Cl)cc5)cc43)CC2)cc1C(N)=O
Reply: 7.04

Task item: Entry to check: CCOC(=O)N1CCC(n2c(C3CC3)nc3ccc(C(c4ccc(Cl)cc4)c4nccs4)cc32)CC1 (centres unmarked)
Reply: 6.95

Task item: What do you get for O=C(O)c1csc(CN2CCC(n3c(C4CC4)nc4ccc(C(c5ccc(Cl)cc5)c5ccc(Cl)cc5)cc43)CC2)c1 ?
Reply: 7.81

Task item: Now the compound O=C(O)CCc1nc2ccc(C(c3ccc(Cl)cc3)c3ccc(Cl)cc3)cc2n1C1CCN(S(=O)(=O)C(F)(F)F)CC1
Reply: 6.82

Task item: Lookup O=S(=O)(NCCCn1c(C2CC2)nc2ccc(C(c3ccc(Cl)cc3)c3ccc(Cl)cc3)cc21)c1cccc(Br)c1
Reply: 7.77

Task item: Consider next the compound O=C(O)c1cc(CN2CCC(n3c(C4CC4)nc4ccc(C(c5ccc(Cl)cc5)c5ccc(Cl)cc5)cc43)CC2)ccc1O in the same way.
Reply: 7.85

Task item: Then what about the compound Clc1ccc(C(c2ccc3ncn(CCc4cccc(Cl)c4)c3c2)c2nccs2)cc1 (centres unmarked) ?
Reply: 6.50

Values were extracted from patent US20190031618A1.
